System: Microsporum canis
Endpoint Name: MIC (µg/mL)
The response must be a number in µg/mL with no trailing unit.

Observe how each entry below is paired with its result.
- Compound: "OC(C=Cc1ccccc1Cl)(Cn1cncn1)C1(Cl)CC1 (stereo not shown) [Compound I-31]"
  Value Unit: "µg/mL"
  MIC: 4
- Compound: "CSC1(C(O)(C=Cc2ccc(Cl)cc2)Cn2cncn2)CC1 (stereo not shown) [Compound I-13]"
  Value Unit: "µg/mL"
  MIC: 4

Let me know recorded MIC for CC(C)(C)C=CC(O)(Cn1cncn1)C1(Cl)CC1 (stereo not shown) [Compound I-38] , thanks.
4

Input Cc1ccc(CCC(O)(Cn2cncn2)C2(Cl)CC2)cc1 (stereo not shown) [Compound I-20] , output reported MIC.
2

Report measured MIC; entry is OC(CCc1ccc(-c2ccccc2)cc1)(Cn1cncn1)C1(Cl)CC1 (stereo not shown) [Compound I-25]
2

Please supply the value of reported MIC for the item OC(CCc1ccccc1)(Cn1cncn1)C1(Cl)CC1 (stereo not shown) [Compound I-23]
2

Answer with the recorded MIC for the compound listed here: OC(CCc1ccc(Cl)cc1Cl)(Cn1cncn1)C1(Cl)CC1 (stereo not shown) [Compound I-22]
4

====

Listed here: molecules with reported MIC for Microsporum canis.

- Molecule: "OC(CCc1ccc(Cl)cc1)(Cn1cncn1)C1(SCc2ccccc2)CC1 (stereo not drawn)"
  MIC: "8 µg/mL"
- Molecule: "OC(CCc1ccc(F)cc1)(Cn1cncn1)C1(Cl)CC1 (stereo not drawn)"
  MIC: "4 µg/mL"
- Molecule: "OC(C=Cc1ccccc1)(Cn1cncn1)C1(Cl)CC1 (stereo not drawn)"
  MIC: "4 µg/mL"
- Molecule: "OC(C=Cc1ccc(Cl)cc1Cl)(Cn1cncn1)C1(Cl)CC1 (stereo not drawn)"
  MIC: "< 1 µg/mL"
- Molecule: "CSC1(C(O)(CCc2ccc(Cl)cc2)Cn2cncn2)CC1 (stereo not drawn)"
  MIC: "2 µg/mL"

# return MIC of OC(CCc1ccccc1Cl)(Cn1cncn1)C1(Cl)CC1 (stereo not drawn) (system: Microsporum canis)
2 µg/mL

Lab note: Microsporum canis assay, enter MIC for OC(CCc1ccc(OC(F)(F)F)cc1)(Cn1cncn1)C1(Cl)CC1 (stereo not drawn) here
4 µg/mL

Enter recorded MIC with Microsporum canis for OC(C=Cc1ccc(OC(F)(F)F)cc1)(Cn1cncn1)C1(Cl)CC1 (stereo not drawn) here.
< 1 µg/mL

Report its MIC with Microsporum canis as the test system: OC(CCc1ccc(Cl)cc1)(Cn1cncn1)C1(Cl)CC1 (stereo not drawn)
< 1 µg/mL

====

These records show MIC for Microsporum canis.

// known answers, use as guide
- Molecule: "OC(C=Cc1ccc(Br)cc1)(Cn1cncn1)C1(Cl)CC1 (stereo not drawn) [Compound I-30]"
  Endpoint Name: "MIC"
  Measured Value: "< 1 mg/L"
- Molecule: "CCSC1(C(O)(C=Cc2ccc(Cl)cc2Cl)Cn2cncn2)CC1 (stereo not drawn) [Compound I-16]"
  Endpoint Name: "MIC"
  Measured Value: "< 1 mg/L"

Under Microsporum canis: report MIC of Cc1ccc(C=CC(O)(Cn2cncn2)C2(Cl)CC2)cc1 (stereo not drawn) [Compound I-28] .
< 1 mg/L
